Reference for the values: the supplement of paper PMC7411054

Test system: HepG2-TP53BP1-CLTA
Experiment Summary: phenotypically active (imaging signature differs from DMSO and reproducible) at any of 0.3-9 uM (binary (1 = active, 0 = inactive)); higher = active
Condition Context: treatment time: 24 h
Assay Metric: phenotypically active

// phenotypically active lookup, key: COc1cccc(-c2cc(F)ccc2[C@H]2Cc3nc(N)nc(C)c3C(=O)N2)n1
1 (active)

// phenotypically active lookup, key: NNCCc1ccccc1
0 (inactive)

Next, consider the following compound.
// phenotypically active lookup, key: CNC(=O)c1cc(Oc2ccc(NC(=O)Nc3ccc(Cl)c(C(F)(F)F)c3)c(F)c2)ccn1
1 (active)

====

Test system: HepG2-TP53BP1-CLTA
Experiment Summary: phenotypically active (imaging signature differs from DMSO and reproducible) at any of 0.3-9 uM (binary (1 = active, 0 = inactive)); higher = active
Condition Context: treatment time: 24 h
Assay Metric: phenotypically active
Answers are plain numbers.

// known answers, use as guide
Which measured phenotypically active belongs to Cc1cc(F)c(Nc2ncnc3cc(OCc4ccccc4)ccc23)cc1O , tested on HepG2-TP53BP1-CLTA?
0

Which measured phenotypically active belongs to Cn1nnc2c(C(N)=O)ncn2c1=O [temozolomide] , tested on HepG2-TP53BP1-CLTA?
0

Next, consider the following compound.
Which measured phenotypically active belongs to NS(=O)(=O)c1cc2c(cc1Cl)NC(C(Cl)Cl)NS2(=O)=O (stereo not drawn) [trichlormethiazide] , tested on HepG2-TP53BP1-CLTA?
0
